Attribute: Dmax
- tested-system: BCL6 (Homo sapiens)
- Construct: endogenous in cells; host or cells: T47D breast cancer epithelial cells
- assay-overview: Immunofluorescence protocol for high content imaging of BCL6 (degradation) in T47D cells, 3 days compound treatment
- Type: cell-based
- stated-conditions: T47D cells, 3 days compound treatment, read-out: Mean Dmax (%)** category

[
  {
    "molecule": "CNC(=O)COc1cc2cc(Nc3nc(N4CCC(CN5CCC6(CCN(c7ccc8c(c7)CN(C7CCC(=O)NC7=O)C8=O)C6)C5=O)CC4)ncc3Cl)ccc2n(C(C)C)c1=O (stereo not shown)",
    "Dmax": "50 to 70%"
  },
  {
    "molecule": "CNC(=O)COc1cc2cc(Nc3nc(N4CCC(O[C@H]5C[C@H](N6CC[C@H](c7ccc8c(c7)C(=O)N(C7CCC(=O)NC7=O)C8)[C@H](F)C6)C5)CC4)ncc3Cl)ccc2n(C(C)C)c1=O (mixture of isomers)",
    "Dmax": "50 to 70%"
  },
  {
    "molecule": "CNC(=O)COc1cc2cc(Nc3nc(N4CCN(C[C@H]5C[C@@H](N6CCC(c7cccc8c7C(=O)N(C7CCC(=O)NC7=O)C8=O)CC6)C5)CC4)ncc3Cl)ccc2n(C(C)C)c1=O (stereo partly shown)",
    "Dmax": "< 50%"
  },
  {
    "molecule": "CNC(=O)COc1cc2cc(Nc3nc(N4CCN(CC5CC6(CCN(c7ccc8c(c7)CN(C7CCC(=O)NC7=O)C8=O)CC6)C5)CC4)ncc3Cl)ccc2n(C(C)C)c1=O (stereo not shown)",
    "Dmax": "50 to 70%"
  },
  {
    "molecule": "CNC(=O)COc1cc2cc(Nc3nc(N4CCC(O[C@H]5CC[C@H](N(C)C6CN(c7cccc8c7C(=O)N(C7CCC(=O)NC7=O)C8=O)C6)CC5)CC4)ncc3Cl)ccc2n(C(C)C)c1=O (stereo partly shown)",
    "Dmax": "50 to 70%"
  },
  {
    "molecule": "CNC(=O)COc1cc2c(F)c(Nc3nc(N4CCC(CN5CCC6(CC5)CN(c5ccc7c(c5)CN(C5CCC(=O)NC5=O)C7=O)C6)CC4)ncc3Cl)ccc2n(C(C)C)c1=O (stereo not shown)",
    "Dmax": "≥ 70%"
  },
  {
    "molecule": "CNC(=O)COc1cc2cc(Nc3nc(N4CCN(CC5CCN(c6ccc7c(c6OC)CN(C6CCC(=O)NC6=O)C7=O)CC5)CC4)ncc3Cl)ccc2n(C(C)C)c1=O (stereo not shown)",
    "Dmax": "≥ 70%"
  },
  {
    "molecule": "CNC(=O)COc1cc2cc(Nc3nc(N4CCC(OC5CN([C@H]6CC[C@H](c7ccc8c(c7)CN(C7CCC(=O)NC7=O)C8=O)CC6)C5)CC4)ncc3Cl)ccc2n(C(C)C)c1=O (single isomer, unassigned)",
    "Dmax": "50 to 70%"
  },
  {
    "molecule": "CNC(=O)COc1cc2cc(Nc3nc(N4CCN(C(C)(C)C5CCC6(CCN(c7ccc8c(c7)CN(C7CCC(=O)NC7=O)C8=O)C6)C5)CC4)ncc3Cl)ccc2n(C(C)C)c1=O (stereo not shown)",
    "Dmax": "< 50%"
  },
  {
    "molecule": "CNC(=O)COc1cc2cc(Nc3nc(N4CCC(O[C@H]5C[C@H](N6C[C@@H](C)N(c7ccc8c(c7)CN(C7CCC(=O)NC7=O)C8=O)[C@H](C)C6)C5)CC4)ncc3Cl)ccc2n(C(C)C)c1=O (relative stereo)",
    "Dmax": "≥ 70%"
  }
]
